Please respond with reported Kcat for every item in the list.
assay: Standard protocol for determination of kcat and KM (continuous spectrophotometric assay, Acetyl CoA hydrolysis at 235 nm); format: biochemical; settings: purified protein; about 23° C.; 20 mM HEPES pH 6.8, 10% ethylene glycol, 0.2 mM acetyl CoA
Kindly provide the numeric value in s⁻¹ only, without the unit symbol.

Inquiry: What value of Kcat has been recorded for this entry: SEQ ID NO: 407: GAT polypeptide (protein, 6_5D11, GAT polypeptide) MIEVKPINAEDTYEIRHRILRPNQPLEACMYETDLLGGTFHLGGYYRGKLISIASFHQAEHPELEGQKQYQLRGMATLEEYREQKAGSTLIRHAEELLRKKGADLLWCNARTSASGYYKKLGFSEQGEVYDIPPIGPHILMYKKLT
Reply text: 0.253

Inquiry: What value of Kcat has been recorded for this entry: SEQ ID NO: 350: GAT polypeptide (protein, 23H11, GAT polypeptide) MIEVKPINAEDTYEIRHRILRPNQPLEACMYETDLLGGTFHLGGYYQGKLISIASFHKAEHSELEGQKQYQLRGMATLEGYREQKAGSTLIRHAEELLRKKGADLLWCNARTSASGYYEKLGFSEQGEVYDIPPIGPHILMYKKLA
Reply text: 0.118
